Target Of Assay: L-lactate dehydrogenase (Plasmodium falciparum (isolate CDC / Honduras)) (UniProt Q27743)
Sequence (Q27743 whole entry, looked up): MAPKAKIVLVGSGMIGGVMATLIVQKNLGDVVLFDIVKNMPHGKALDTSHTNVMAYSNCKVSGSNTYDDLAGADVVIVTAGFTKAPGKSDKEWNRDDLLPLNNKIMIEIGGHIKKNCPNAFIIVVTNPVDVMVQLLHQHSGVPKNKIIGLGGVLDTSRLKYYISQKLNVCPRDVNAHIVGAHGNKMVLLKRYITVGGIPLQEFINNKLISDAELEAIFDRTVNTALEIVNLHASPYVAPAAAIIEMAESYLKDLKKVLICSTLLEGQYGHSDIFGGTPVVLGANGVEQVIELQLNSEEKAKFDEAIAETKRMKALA
Protocol Notes: PfLDH activity inhibition – cell lysate, 3D7 strain, counter-screen for P. falciparum growth inhibition project (AID 2304);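 further: 0% = vehicle and 100% = reference inhibitor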
Measurement Setup: P. falciparum 3D7 crude extract, LDH APAD/NBT absorbance; at 2 µM; active compounds read high
Activity calls are given as the source filed them. How the calls were made is not given here.
# inhibition values compiled below
Quantity: inhibition

molecule=CCCNCc1ccc(-c2ccc(CN(Cc3cccs3)C(=O)C3CCN(C)CC3)cc2)nc1 quantity=inhibition endpoint_result="-3% (inactive)"
molecule=c1ccc2oc(-c3cc4ccncc4cc3OC3CCNCC3)cc2c1 quantity=inhibition endpoint_result="-3% (inactive)"
molecule=Clc1ccc2c(NCc3ccccn3)ccnc2c1 quantity=inhibition endpoint_result="-4% (inactive)"
molecule="CCCC1N=C(N)N=C(N)N1c1cccc([N+](=O)[O-])c1 (stereo not given)" quantity=inhibition endpoint_result="3% (inactive)"
molecule=CCOc1c(Br)cc(Cl)cc1CNCCCNc1nc2ccccc2[nH]1 quantity=inhibition endpoint_result="-2% (inactive)"
molecule=O=C(Nc1cccc(CN2CCCN(Cc3ccsc3)CC2)c1)c1ccc(Cl)c(Cl)c1 quantity=inhibition endpoint_result="4% (inactive)"
molecule=CC(C)NCc1cccc(-c2ccc(NC(=O)c3ccc(F)cc3)cc2)c1 quantity=inhibition endpoint_result="-1% (inactive)"
molecule=CN(C)C(=O)c1cc(CNCc2ccccc2)ccc1-c1cccc(CNCc2ccc(-c3ccccc3)cc2)c1 quantity=inhibition endpoint_result="-3% (inactive)"
molecule=Cc1cc(C2CCN(CCCCNC(=O)c3ccc(-c4ccc(C(F)(F)F)cc4)cc3)CC2)c(C)cc1OCC(N)=O quantity=inhibition endpoint_result="-7% (inactive)"
molecule=Cc1cc(C(=O)Nc2ccc(-c3ccccc3)cc2)no1 quantity=inhibition endpoint_result="-3% (inactive)"

###

Target Of Assay: Calcium-dependent protein kinase 4 (Plasmodium falciparum (isolate 3D7)) (UniProt Q8IBS5)
Sequence (Q8IBS5 whole entry, looked up): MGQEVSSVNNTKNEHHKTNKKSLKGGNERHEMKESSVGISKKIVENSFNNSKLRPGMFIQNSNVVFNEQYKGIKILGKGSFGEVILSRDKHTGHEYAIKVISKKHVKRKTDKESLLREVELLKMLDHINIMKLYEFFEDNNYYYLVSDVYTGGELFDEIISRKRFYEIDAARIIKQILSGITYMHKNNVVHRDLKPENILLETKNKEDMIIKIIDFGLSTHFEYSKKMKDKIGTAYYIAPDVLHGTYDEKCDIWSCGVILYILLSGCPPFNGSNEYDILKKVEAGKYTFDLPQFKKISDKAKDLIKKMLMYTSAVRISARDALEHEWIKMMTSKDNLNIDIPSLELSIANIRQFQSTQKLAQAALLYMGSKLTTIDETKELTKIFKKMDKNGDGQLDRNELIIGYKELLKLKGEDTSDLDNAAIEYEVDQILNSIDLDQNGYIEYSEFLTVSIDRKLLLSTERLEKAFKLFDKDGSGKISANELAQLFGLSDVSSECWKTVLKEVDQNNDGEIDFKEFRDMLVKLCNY
Protocol Notes: PfCDPK4 kinase inhibitors, biochemical, TCAMS library (AID 1159588)
Measurement Setup: recombinant PfCDPK4, Kinase-Glo ATP depletion luminescence
Potency and affinity values are given separately. Active and inactive are the calls of the source. The limit is not given here; nearly all actives have IC50 up to about 0.91 µM.
Quantity: outcome

compound=CCOc1cc(C(=O)NCC2CCN(CC3CCCCC3)CC2)ccc1-c1nc2ccc(Cl)cc2[nH]1 target_of_assay="Calcium-dependent protein kinase 4 (Plasmodium falciparum (isolate 3D7)) (UniProt Q8IBS5)" endpoint_result=inactive
compound=c1ccc(Oc2ccc(Nc3nc(NCCc4cnc[nH]4)nc(NC4CCCC4)n3)cc2)cc1 target_of_assay="Calcium-dependent protein kinase 4 (Plasmodium falciparum (isolate 3D7)) (UniProt Q8IBS5)" endpoint_result=inactive
compound=CCN(CCCN1CCCCC1)c1cc(C)nc(Nc2ccc(C)cc2Br)n1 target_of_assay="Calcium-dependent protein kinase 4 (Plasmodium falciparum (isolate 3D7)) (UniProt Q8IBS5)" endpoint_result=inactive
compound=N#Cc1ccc2[nH]cc(CN3CCC4(CC3)CN(CCNCc3ccccc3)C(=O)CO4)c2c1 target_of_assay="Calcium-dependent protein kinase 4 (Plasmodium falciparum (isolate 3D7)) (UniProt Q8IBS5)" endpoint_result=inactive
compound=COc1ccc(Cn2c(Nc3cccc(C(F)(F)F)c3)nc3cc(C(=O)NC(C)C)cnc32)cc1Cl target_of_assay="Calcium-dependent protein kinase 4 (Plasmodium falciparum (isolate 3D7)) (UniProt Q8IBS5)" endpoint_result=inactive
compound=COCCNCc1ccc(-c2ccccc2CNC2CCN(Cc3ccccc3)CC2)cc1 target_of_assay="Calcium-dependent protein kinase 4 (Plasmodium falciparum (isolate 3D7)) (UniProt Q8IBS5)" endpoint_result=inactive
compound=C#CC[C@@H](NC(N)=O)C(=O)O target_of_assay="Calcium-dependent protein kinase 4 (Plasmodium falciparum (isolate 3D7)) (UniProt Q8IBS5)" endpoint_result=inactive
compound="COc1ccc(Nc2nccc(NCC(O)c3ccc(C(F)(F)F)cc3)n2)cc1 (stereo not given)" target_of_assay="Calcium-dependent protein kinase 4 (Plasmodium falciparum (isolate 3D7)) (UniProt Q8IBS5)" endpoint_result=inactive
compound=CS(=O)(=O)NCCCNCc1cccc(-c2cccc(-c3nc4ccc(F)cc4[nH]3)c2)c1 target_of_assay="Calcium-dependent protein kinase 4 (Plasmodium falciparum (isolate 3D7)) (UniProt Q8IBS5)" endpoint_result=inactive
compound=COc1cc(CCON2C(N)=NC(N)=NC2(C)C)cc(OC)c1OC target_of_assay="Calcium-dependent protein kinase 4 (Plasmodium falciparum (isolate 3D7)) (UniProt Q8IBS5)" endpoint_result=inactive
